These entries and their values trace back to a melting point compilation (Tetko et al.; mined from patent text by program, amines drawn as free bases though some values may be those of a salt).

Property: melting point

CCOC(=O)c1c(-c2cc(C(C)(C)C)c(O)c(C(C)(C)C)c2)c2cc3c(cc2oc1=O)CCC3: 208 to 209 °C
O=C(O)c1n[nH]c2cc(F)ccc12: > 290 °C
O=C1CSC(=S)N1c1ccc(Cl)cc1: 124 to 126 °C

Give measured melting point for every item shown.
1. O=C(NC(CS)Cc1ccccc1)N1C=CC=CC1 (single isomer, unassigned; (+))
2. C[C@]12CC[C@H](O)CC1=CCC1C2CC[C@@]2(C)C1CC[C@@H]2c1c[nH]nn1 (stereo not given in full)
3. CCOC(=O)c1ccc2cccc([N+](=O)[O-])c2c1
4. COc1ccc(C(=O)CCC(=O)c2ccc(OC)c(OC)c2)cc1OC
5. CC12CCC(=O)C=C1CC(O)C1C2CCC2(C)C(O)CCC12 (stereo not given)

1. 115 to 117 °C
2. 275 to 277 °C
3. 120 °C
4. 181 to 182 °C
5. 191 to 193 °C

Give measured melting point for every item shown.
1. CC(=O)N(c1cc2occc(=O)c2cc1Oc1ccc(F)cc1F)S(C)(=O)=O
2. Cc1cccc2c1C=Cc1ccccc1C2Cl (stereo not given)

["176 to 178 °C", "158 to 160 °C"]

* * *

What melting point was measured for each of the following?

COc1ccc(-c2cc(=O)c3cc(OCCCCCN4CCC(O)CC4)ccc3o2)cc1OC: 154 to 155 °C
O=S(=O)(c1ccccc1)C(CC(F)(F)F)c1ccc(C(O)(C(F)(F)F)C(F)(F)F)cc1 (stereo not given): 151 °C
COC(=O)c1cc(C(=O)OC)nc(O)n1: 186 to 188 °C
Nc1nccc(Oc2ccc3c(C(=O)Nc4ccc(F)c(C(F)(F)F)c4)nsc3c2)n1: 237 to 239 °C

Give measured melting point for every item shown.
1. COc1ccc2c(c1)C(=O)C(Cc1cccc(NS(=O)(=O)C(F)(F)F)c1)CC2 (stereo not given)
2. O=c1oc(-c2ccccc2)cc(O)c1C(CC1CC1)SCc1ccccc1 (stereo not given)

152 to 154 °C
59 to 61 °C

Give measured melting point for every item shown.
1. O=C(Cl)c1cccnc1Oc1cccc(Cl)c1
2. Nc1ccc(NC(=O)C(=O)N2CCC(Cc3ccc(F)cc3)CC2)cc1
3. CN1Cc2ccccc2C(Oc2ccc(C#N)cc2)C1 (stereo not given)

["72 to 74 °C", "141 to 143 °C", "131 to 132 °C"]

* * *

Property: melting point

Consider the reported melting point for these molecules:
O=C(O)c1ccccc1-c1nnc(-c2ccccc2)o1: 173 to 175 °C
OC[C@H]1OC(O)[C@H](O)[C@H](F)[C@@H]1O (stereo not given in full): 120 to 122 °C
COc1ccc2nc3c(c(-c4ccc(F)cc4)c2c1)CNC3=O: 284 to 286 °C
Cc1cc(-n2c(C)nnc2C)cc2ccc(=O)[nH]c12: 308 to 310 °C

The record that follows has no melting point shown yet.
Data request, read-out melting point, for CC#CCOc1ccc(C(=O)N(C)C[C@@H](C(=O)NO)N2CCN(S(C)(=O)=O)CC2)cc1
145 °C

* * *

What melting point was measured for each of the following?
Numbers only, in °C.

CC(=O)Nc1ccc(C(=O)c2cc(-c3ccncc3)c(N3CCOCC3)s2)cc1: 139
O=C(NC(C(=O)O)c1ccc[nH]1)OCC(Cl)(Cl)Cl (stereo not given): 111

Data request, read-out melting point, for Nc1nc2ccccc2c2c1ncn2CCNC(=O)CCCCC1SCC2NC(=O)NC21 (stereo not given)
169
